assaySystem: NF1
assayExplanation: pooled miR-30 sensor sort-seq; sequence = guide strand; further: reference of the scale not given here
measurementSetup: shRNA
assayReadout: sensor-assay potency score (higher = more potent)
Lab note: jot down the number only; don't add units.

Q) Retrieve sensor-assay potency score (higher = more potent) on NF1; query "TAAAATAGCAATATCATCCCAC"
A) 0.315

Q) Retrieve sensor-assay potency score (higher = more potent) on NF1; query "TAGCAGTAACTCTTTGTCGTTT"
A) -0.737

Q) Retrieve sensor-assay potency score (higher = more potent) on NF1; query "TTGTAGGACAATCAGATGCTAT"
A) -0.838

Q) Retrieve sensor-assay potency score (higher = more potent) on NF1; query "TTTGTAGATAGGTAGCACCATA"
A) -1.19

====

assaySystem: CA4
assayExplanation: pooled miR-30 sensor sort-seq; sequence = guide strand
measurementSetup: shRNA
Use sensor-assay potency score (higher = more potent) to assign classes; range list: bucket 1: < -1; bucket 2: ≥ -1 and < -0.8; bucket 3: ≥ -0.8

Q) Hi, small favor: classify "TTGTCCACCTTTGCCTTGGTGG" by its sensor-assay potency score (higher = more potent) when you get a moment.
A) bucket 3

Q) Hi, small favor: classify "TTGCTTCTTATCGTAGCCAGAG" by its sensor-assay potency score (higher = more potent) when you get a moment.
A) bucket 2

Q) Hi, small favor: classify "TTATTTTGGACAGTCCACGTTT" by its sensor-assay potency score (higher = more potent) when you get a moment.
A) bucket 3

Q) Hi, small favor: classify "TCGTAGTACAGCTTCTGAGAGA" by its sensor-assay potency score (higher = more potent) when you get a moment.
A) bucket 2

Q) Hi, small favor: classify "TTGTTCTCCAGCAACATCATCA" by its sensor-assay potency score (higher = more potent) when you get a moment.
A) bucket 1

Q) Hi, small favor: classify "TTCTCATCGCAGGTCGGTGTGG" by its sensor-assay potency score (higher = more potent) when you get a moment.
A) bucket 1

Q) Hi, small favor: classify "TGTCTGTTCCTTGTCGTAGTAC" by its sensor-assay potency score (higher = more potent) when you get a moment.
A) bucket 3

Q) Hi, small favor: classify "TCACTGTCTGTTCCTTGTCGTA" by its sensor-assay potency score (higher = more potent) when you get a moment.
A) bucket 1

Q) Hi, small favor: classify "TCGTAGTGCTCATCTCAGGTTT" by its sensor-assay potency score (higher = more potent) when you get a moment.
A) bucket 3

Q) Hi, small favor: classify "TTCCTTGTCGTAGTACAGCTTC" by its sensor-assay potency score (higher = more potent) when you get a moment.
A) bucket 3

Q) Hi, small favor: classify "TCCAGCAACATCATCACTGAGT" by its sensor-assay potency score (higher = more potent) when you get a moment.
A) bucket 1

Q) Hi, small favor: classify "TTGTCGTAGTACAGCTTCTGAG" by its sensor-assay potency score (higher = more potent) when you get a moment.
A) bucket 1

Q) Hi, small favor: classify "TTTTTTGTCCACCTTTGCCTTG" by its sensor-assay potency score (higher = more potent) when you get a moment.
A) bucket 1

Q) Hi, small favor: classify "ATGTACTATGTGCATCTCCATG" by its sensor-assay potency score (higher = more potent) when you get a moment.
A) bucket 1

Q) Hi, small favor: classify "TTCTCTGTGAAGCTGAATGGGC" by its sensor-assay potency score (higher = more potent) when you get a moment.
A) bucket 2

Q) Hi, small favor: classify "TGTCGTAGTACAGCTTCTGAGA" by its sensor-assay potency score (higher = more potent) when you get a moment.
A) bucket 3

Q) Hi, small favor: classify "TTGGACAGTCCACGTTTGCTTC" by its sensor-assay potency score (higher = more potent) when you get a moment.
A) bucket 2

Q) Hi, small favor: classify "TTATATGGCAAGTCGGACCAGT" by its sensor-assay potency score (higher = more potent) when you get a moment.
A) bucket 3

Q) Hi, small favor: classify "TTTGCTTCTTATCGTAGCCAGA" by its sensor-assay potency score (higher = more potent) when you get a moment.
A) bucket 2

Q) Hi, small favor: classify "TTGACTGGCACCAAGCAGGGGT" by its sensor-assay potency score (higher = more potent) when you get a moment.
A) bucket 3
